tested on: BJeH, BJeHLT, BJeLR and DRD cells; type: cell-based; conditions: EC50 (BJeH)/EC50 (BJeLR)
valueType: Selectivity score

Sample answers from the record:
Sample CC(C)Oc1ccc(CNCCCN(C)C)cc1-n1c(CN2CCN(C(=O)COc3ccc(Cl)cc3)CC2)nc2ccccc2c1=O — what was its Selectivity score? 3.3

Sample CC(C)Oc1ccc(CN(C)CCO)cc1-n1c(CN2CCN(C(=O)COc3ccc(Cl)cc3)CC2)nc2ccccc2c1=O — what was its Selectivity score? 3.7

***
Sample COCCN(CCOC)Cc1ccc(OC(C)C)c(-n2c(CN3CCN(C(=O)COc4ccc(Cl)cc4)CC3)nc3ccccc3c2=O)c1 — what was its Selectivity score? 5.9

Sample CCN(CC)Cc1ccc(OC(C)C)c(-n2c(CN3CCN(C(=O)COc4ccc(Cl)cc4)CC3)nc3ccccc3c2=O)c1 — what was its Selectivity score? 4.1
